target-system: human cGAS (residues 161-522) (Homo sapiens, UniProt Q8N884)
Construct: human cGAS (residues 161-522)
Sequence (Q8N884 161-522): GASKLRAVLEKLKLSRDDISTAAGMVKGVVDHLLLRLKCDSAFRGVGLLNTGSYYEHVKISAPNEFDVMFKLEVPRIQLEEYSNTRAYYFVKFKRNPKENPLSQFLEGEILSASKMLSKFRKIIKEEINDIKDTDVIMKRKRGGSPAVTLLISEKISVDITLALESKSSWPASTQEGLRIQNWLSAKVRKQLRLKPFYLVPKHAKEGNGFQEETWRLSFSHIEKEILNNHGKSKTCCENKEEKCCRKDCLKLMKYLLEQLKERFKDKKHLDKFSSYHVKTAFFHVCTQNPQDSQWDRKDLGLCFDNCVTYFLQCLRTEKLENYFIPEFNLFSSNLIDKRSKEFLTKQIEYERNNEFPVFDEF
protocol-details: cGAS Activity Assay—Malachite Green
experimental-context: recombinant purified human cGAS 25 nM; 80 μM ATP, 80 μM GTP, 100 nM ISD; 4 hour at RT; phosphate detection by Malachite Green
// values below are reported IC50
// note: answer is a bare numeric in nM

INSERT INTO results (compound, quantity, assay_value) VALUES
  ('COc1ccc(CCc2cnc(NC(=O)/C(C#N)=C(\O)c3cnoc3C)nc2C(F)(F)F)cn1 [Example 130]', 'IC50', 1220);

Q: Note IC50 for the compound shown: Cc1oncc1/C(O)=C(\C#N)C(=O)Nc1ccc(-c2ccccc2)cc1 [Example 64]
Result: 1730

Q: Note IC50 for the compound shown: COc1cnc(NC(=O)/C(C#N)=C(\O)c2cnoc2C)nc1CCc1ccccc1 [Example 129]
Result: 520

Q: Note IC50 for the compound shown: CCc1oncc1/C(O)=C(\C#N)C(=O)Nc1ccc(C(F)(F)F)cc1 [Example 141]
Result: 6450
